- Test system: Pseudomonas 2 (Pseudomonas vancouverensis)
- protocol: relative growth (AUC of 72 h growth curve relative to DMSO control, dAUC) (ratio); higher = more growth (less inhibition), active = hit call of the paper
- measurement.setup: 20 µM
property: relative growth
Give only the figure.

Example entries begin here.
Cc1c(COC(=O)[C@@H]2[C@H](/C=C(\Cl)C(F)(F)F)C2(C)C)cccc1-c1ccccc1 (racemic) : 0.983
COP(=S)(OC)Oc1ccc(SC)c(C)c1 : 0.973
Cc1ccc(/N=C/N(C)/C=N/c2ccc(C)cc2C)c(C)c1 : 0.973

Now let's try a different one.
Summary for this molecule, CC(C)(C)c1ccc(CSc2cnn(C(C)(C)C)c(=O)c2Cl)cc1 : relative growth is 1.01

* * *

- Test system: Community 8
- protocol: relative growth (AUC of 72 h growth curve relative to DMSO control, dAUC) (ratio); higher = more growth (less inhibition), active = hit call of the paper
- measurement.setup: 20 µM
# maps each entry to its relative growth

Example entries begin here.
CCOC(=O)OC1=C(c2cc(C)ccc2C)C(=O)N[C@]12CC[C@@H](OC)CC2 : 0.995 (inactive)
COc1ccc(C(=CC(=O)N2CCOCC2)c2ccc(Cl)cc2)cc1OC (mixture of isomers) : 0.986 (inactive)

Summary for this compound, CN/C(=N\[N+](=O)[O-])NCc1cnc(Cl)s1 : relative growth is 1 (inactive)

Summary for this compound, CC1(C)C(C(=O)OC(C#N)c2cccc(Oc3ccccc3)c2)C1(C)C (stereo not given) : relative growth is 1.02 (inactive)

Summary for this compound, COP(=S)(OC)SCN1C(=O)c2ccccc2C1=O : relative growth is 1.02 (inactive)

* * *

- Tested on: Argrobacterium 1 (Agrobacterium sp.)
- protocol: relative growth (AUC of 72 h growth curve relative to DMSO control, dAUC) (ratio); higher = more growth (less inhibition), active = hit call of the paper
- measurement.setup: 20 µM
property: relative growth

Example entries begin here.
CC1(C)C(C=C(Cl)Cl)C1C(=O)OC(C#N)c1cccc(Oc2ccccc2)c1 (centres undefined) : 1.07 (inactive)
CC1(C)CON(Cc2ccccc2Cl)C1=O : 1 (inactive)
CS(=O)(=O)c1cc(C(F)(F)F)ccc1C(=O)c1cnoc1C1CC1 : 1.01 (inactive)

Now let's try a different one.
Summary for this compound, CNC(=O)/C=C(\C)OP(=O)(OC)OC : relative growth is 0.984 (inactive)

* * *

- Test system: Pseudomonas 2 (Pseudomonas vancouverensis)
- protocol: relative growth (AUC of 72 h growth curve relative to DMSO control, dAUC) (ratio); higher = more growth (less inhibition), active = hit call of the paper
- measurement.setup: 20 µM
# maps each entry to its relative growth

Example entries begin here.
CS(=O)(=O)c1ccc(C(=O)C2C(=O)CCCC2=O)c([N+](=O)[O-])c1 : 1.02 (inactive)
CC[C@H](C)C1O[C@]2(C=C[C@@H]1C)C[C@@H]1C[C@@H](C/C=C(\C)[C@@H](O[C@H]3C[C@H](OC)[C@@H](O[C@H]4C[C@H](OC)[C@H](NC)[C@H](C)O4)[C@H](C)O3)[C@@H](C)/C=C/C=C3\CO[C@@H]4[C@H](O)C(C)=C[C@@H](C(=O)O1)[C@]34O)O2 (stereo partly specified) : 0.971 (inactive)
CCOP(=S)(OCC)Oc1nc(Cl)c(Cl)cc1Cl : 1.01 (inactive)
CC1(C)C(C=C(Cl)Cl)C1C(=O)OC(C#N)c1ccc(F)c(Oc2ccccc2)c1 (stereo unspecified) : 1.02 (inactive)
CCOP(=S)(OCC)Oc1cc(C)nc(C(C)C)n1 : 1.01 (inactive)

Summary for this molecule, Cc1cc(C(C#N)c2ccc(Cl)cc2)c(Cl)cc1NC(=O)c1cc(I)cc(I)c1O (stereo unspecified) : relative growth is 0.757 (active)

Summary for this molecule, CNC(=O)/C=C(\C)OP(=O)(OC)OC : relative growth is 0.988 (inactive)

Summary for this molecule, Nc1c([N+](=O)[O-])ccc(Oc2ccccc2)c1Cl : relative growth is 0.982 (inactive)

Summary for this molecule, CCN(CC)c1nc(C)cc(OP(=S)(OC)OC)n1 : relative growth is 1 (inactive)

Summary for this molecule, N#C/N=C1\SCCN1Cc1ccc(Cl)nc1 : relative growth is 1.01 (inactive)

Summary for this molecule, CNC(=O)CSP(=S)(OC)OC : relative growth is 0.991 (inactive)

Summary for this molecule, CON(C)C(=O)Nc1ccc(Cl)c(Cl)c1 : relative growth is 0.949 (inactive)

Summary for this molecule, CN(C)C(CSS(=O)(=O)O)CSS(=O)(=O)O : relative growth is 0.994 (inactive)

Summary for this molecule, CCCCN(CCCC)SN(C)C(=O)Oc1cccc2c1OC(C)(C)C2 : relative growth is 1.03 (inactive)

Summary for this molecule, CNC(=O)c1cc(Cl)cc(C)c1NC(=O)c1cc(Br)nn1-c1ncccc1Cl : relative growth is 0.996 (inactive)

Summary for this molecule, O=C1C2CC=CCC2C(=O)N1SC(Cl)(Cl)Cl (stereo unspecified) : relative growth is 0.983 (inactive)
